# System: RARb homodimer (NR concentration 270 nM)
# Protocol Details: PBM binding z-score (relative to random genomic background probes); higher = stronger binding; sequences stand for … in GC…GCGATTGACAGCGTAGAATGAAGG
Listed below: PBM binding z-score values for each entry.
Hey, just send me the number, nothing else.

Consider the reported PBM binding z-score for these sequences:
TCGAGTAGGTCAGTCGGGGCATTCAGCCAACATA    2.3
GCTCGCAGGCCATTTGGGTCACTCAATGACGGGC    1.93
ACTTACGTGTCAACGAGGTTATAGCACGCGTATA    1.17

Now consider the entry below.
Just so you know, measured PBM binding z-score for `CAAACTAGGTCAGGAGGTCAAAGTCCGCTTCCCG` came out at 5.3

----------
# Tested on: PPARg DBDmut:RXRa IVT, anti-PPARg (DBD mutation: PPARg1 K132A/R137A, NR concentration 270 nM, RXRa partner concentration 90 nM)
# Protocol Details: PBM binding z-score (relative to random genomic background probes); higher = stronger binding; sequences stand for … in GC…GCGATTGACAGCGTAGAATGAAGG
Label fulfilled when PBM binding z-score >= 0.2; otherwise not fulfilled.

TCTAGCAGGCCAGAGGGTCTCTCAAGAGGTACGG    not fulfilled
TAGCCTAGGTCAGATCGGGCCAGTATACGCTATA    fulfilled
TGAATGAGGTTGTAAGATCAGGGAACGTTGCAAA    fulfilled
ATATGTGGGTTAGCTGGGGTCATTCAGACTAGGC    fulfilled

# next sequence below
q: Assess whether reported PBM binding z-score for `CGAACTAGGTCAATGACAGGACAGTGAATAGTAA` sits at 0.2 or higher.
a: fulfilled

----------
# Tested on: THRa homodimer (NR concentration 90 nM)
# Protocol Details: PBM binding z-score (relative to random genomic background probes); higher = stronger binding; sequences stand for … in GC…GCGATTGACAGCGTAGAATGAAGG
Param threshold (1) applies to PBM binding z-score; output Yes when value >= threshold, No when value < threshold.

Solved entries (count: 3):
TCGAGTAGGTTAGGTGCATTCAGAATGGCGTCGA    No
CTGGAAAGGTCGGTTGAGGTGAGTATACGGATAA    Yes
CCTAACAGGCCAGGGTCACTCAAGCATTTCGCTT    Yes

q: Quick check, PBM binding z-score >= 1? `TCAGAAAGGTGAAGGTAACTCAGGTACGCAGTCG`
a: No

q: Does `ATCGAAAAGTCGTGAGGTGAGTATACAGAAAGGC` have a reported PBM binding z-score of at least 1?
a: Yes

q: Could you tell me if the measured PBM binding z-score of `CTCGAAAGGTCGGTTGAGGCGAGTATACGGATAA` reaches 1 or more?
a: No

q: Could you please find out whether `CCTTTCGGGTCACTGACAGGTTATAGCATTTGGA` has PBM binding z-score that meets 1 or exceeds it?
a: Yes

q: Can `TCTATTAGTTGCTTAGGGCAACCGAAACAGCGGA` be said to have PBM binding z-score at or above 1?
a: No

----------
Documented PBM binding z-score across a set of sequences
# Test system: PPARg:RXRa 90nM:30nM, anti-RXR (NR concentration 90 nM, RXRa partner concentration 30 nM)
# Protocol Details: PBM binding z-score (relative to random genomic background probes); higher = stronger binding; sequences stand for … in GC…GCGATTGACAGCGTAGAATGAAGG
Form: value (number only, do not type unit).

CCTTCTAGGTCAATGGTCAGCTAAAGCAGCTCGC    7.12
TTATATAGGTAAATGCTAGGTGAAAGTCCGATCT    2.34
ACTAGCGGGCCAAGGGTCACTCAAGATTAGTCCG    8.29

Record `ACTAGCAGGCCAAGTTTGGGTTACTCAAACAAAG` . Reported PBM binding z-score: -0.657

Recorded PBM binding z-score (sequence `TCATATAGGTAAACAAGTGAAAGTCCGTAAGTTA` ): 2.98

Lab note: `CCTAGTTGGACAGGAGGTCACACACCGGATATGA` gave PBM binding z-score of 2.35

----------
# Tested on: PPARg DBDmut IVT, anti-PPARg (DBD mutation: PPARg1 K132A/R137A, NR concentration 270 nM)
# Protocol Details: PBM binding z-score (relative to random genomic background probes); higher = stronger binding; sequences stand for … in GC…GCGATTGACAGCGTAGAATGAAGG
In this scheme, each record receives a class according to its PBM binding z-score; the ranges are lower segment = under 0.05, middle segment = from 0.05 up to 0.8, upper segment = 0.8 and over

Example results:
TCATATAGGTAAAGGTGAAAGTAGAACGATATGA    upper segment
CGAACTAGGTCAGAAAAGGACAGTGAAGGATGAT    upper segment
CATAGTTGGTCAGGAGGTCACACACCGGATATGA    upper segment
CCTTACGGGTCACTGACCGGTTATAGCATTTGGA    lower segment
CCTACTGGGCCACGAAAGGTCATTAATTCAGTGA    middle segment
ATCGAAAGGTCGTGAGATGAGTATACAGAAAGGC    upper segment
TCAGACAGGTGAAGGGAACTCAGGTACGCAGTCG    lower segment
GCGACTGGGGCAAAGCAGGTTGCCATAAGGTTGG    lower segment
TCTAGTTGGTCAAAGGTAACACACTCGAAATGCG    upper segment
TGTCAAGGTTCAAAGGTAACGTAAGTATCCACAC    middle segment

q: Input `CCTTACGGGTTACGAGGTTATAGCACGACGAGCG` ; output its category
a: upper segment

q: # bin label for `ATCGAAAGGTCGTGAGGTGAGTATTCAGAAAGGC`
a: middle segment

q: Place this sequence in its band: `ACTAGCAGGGCAAGGGTCACTCAAGATTAGTCCG`
a: lower segment

q: Category of `AGAATGAGGTTATTACGATCAGGGAATTGCGGTC` , please.
a: middle segment

q: Would you mind sorting `ACAGACAGGTGAGTGAGGGTAACTCAGCTGGACG` into the appropriate category?
a: lower segment

q: The entry to classify is `CTACCAAGGTGAACAGGGTCGTTGATTACTATTC` ; which class holds it?
a: middle segment

----------
# Test system: LXRb:RXRa (NR concentration 270 nM, RXRa partner concentration 90 nM)
# Protocol Details: PBM binding z-score (relative to random genomic background probes); higher = stronger binding; sequences stand for … in GC…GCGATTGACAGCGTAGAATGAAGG
Outcome label depends on PBM binding z-score relative to 2: at/above gives fulfilled, below gives not fulfilled.

CGAACTAGGTCATCCAGGACAGGGAATACATTGA    not fulfilled
TAGCCTGGGTCAGATCGGGCCAGTATACGCTATA    not fulfilled

q: Does PBM binding z-score meet or surpass 2 for `AGAATGAGGTTATACGTAGATGAGGGAAGAAAGT` ?
a: not fulfilled

q: Quick check, PBM binding z-score >= 2? `AATACAGGGCCATCGTAGGCCAGAGTACGCACAG`
a: not fulfilled

q: API: above_or_equal(metric=PBM binding z-score, cutoff=2) for item `ACTATTAGTTGACTTAGGGCAATCGATACGACGC`
a: not fulfilled

q: Given `CCGACTAGGTTATGGGGCATTCAGGCAACGGTGA` , state whether its PBM binding z-score is at least 2.
a: not fulfilled

q: Would you say `GCTAGCAGGCCATTTGGGTCACTCATTGACGGGC` shows PBM binding z-score at minimum 2?
a: not fulfilled

q: Check the entry `ACTATTAGTTGAGACGAGGGCCACCGATAGGTTG` : does PBM binding z-score equal or exceed 2?
a: not fulfilled

q: Given `CCAGACAGGTGAAAGGTTACTCAGTCTGGTACGC` , state whether its PBM binding z-score is at least 2.
a: fulfilled

q: Quick check, PBM binding z-score >= 2? `CCGACTGGGGCATCAGGTTACCATAAGCCAGCCC`
a: not fulfilled

q: Evaluate `CTACCAAGGTGAACAAGGTCGTAGATTACTATTC` : PBM binding z-score at minimum 2?
a: not fulfilled

q: Given the entry `AGGATGAGGTTATTAAGATCAGGGAATTGCGGTC` , answer whether its PBM binding z-score meets or surpasses 2.
a: not fulfilled

----------
# System: PPARg homodimer (NR concentration 180 nM)
# Protocol Details: PBM binding z-score (relative to random genomic background probes); higher = stronger binding; sequences stand for … in GC…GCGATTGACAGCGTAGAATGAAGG
# label = yes if PBM binding z-score >= 0.8 else no

CGTCCAAGGTCAAAGCTAGGTCAGTGAAAGCATT    yes
ATATGTAGGTTAACGGGTCATTCAGTTTGCGCAT    yes
TCATATAGGTAAACAGGTGATAGTCCGTAAGTTA    yes
CAAACTAGGTCAAGGTCAAAATCGGTTTGTGCCA    yes

Consider now this further sequence.
q: // inclusive: PBM binding z-score at least 0.8? input: `ACTAGTTGGTCAGCTGAGGCCACACACAATTCGG`
a: no
